Field: bioavailability. Provide a value for each of the compounds that follow.
experiment: Mouse plasma PK after oral gavage; format: in vivo; details: female, CD1, mouse, mice, 10 mg/kg PO
Numeric only. Scale: %

Task: Tell me the measured bioavailability of Cc1nc(N)c2c(-c3ccc(NC(=O)[C@H](O)c4cccc(F)c4)c(F)c3F)cn(C)c2n1 [Compound 70] , please.
Result: 117

Task: Field entry: Cc1nc(N)c2c(-c3ccc(NC(=O)[C@H](O)c4cc(F)cc(C(F)(F)F)c4)cc3C)cn(C)c2n1 [Compound 39]
Result: 78

Task: What would you report for Cc1nc(N)c2c(-c3ccc(NC(=O)[C@H](O)c4cccc(F)c4)cc3C)cn(C)c2n1 [Compound 24] ?
Result: 77

Task: Another compound to look at: Cc1nc(N)c2c(-c3ccc(NC(=O)[C@H](O)c4cc(F)cc(F)c4)cc3C)cn(C)c2n1 [Compound 38]
Result: 94

----------
assay: Metabolic clearance in hepatocytes, rat; format: in vitro ADME; conditions: male, Sprague Dawley, cryopreserved rat hepatocytes, read-out: Hepatocyte Clearance (t1/2 min) Rat
Label 1 (yes) when half-life at 1 µM < 20 min; otherwise 0 (no).

Task: Report whether reported half-life at 1 µM is lower than 20 min (strictly) for Cc1nc(N)c2c(-c3ccc(NC(=O)[C@H](O)c4cccc(Cl)c4)cc3F)cn(C)c2n1 [Compound 48]
Result: 0 (no)

Task: How about Cc1nc(N)c2c(-c3ccc(NC(=O)[C@H](O)c4cccc(F)c4)c(F)c3F)cn(C)c2n1 [Compound 70] ?
Result: 1 (yes)

Task: Would you mind doing Cc1nc(N)c2c(-c3ccc(NC(=O)[C@H](O)c4cccc(F)c4)cc3C)cn(C)c2n1 [Compound 24] as well?
Result: 0 (no)

Task: # iterate: Cc1nc(N)c2c(-c3ccc(NC(=O)[C@H](O)c4cccc(F)c4)c(F)c3C)cn(C)c2n1 [Compound 65]
Result: 0 (no)

Task: Could you do the same for Cc1nc(N)c2c(-c3ccc(NC(=O)[C@H](O)c4cccc(Cl)c4)cc3C)cn(C)c2n1 [Compound 28] , please?
Result: 0 (no)

Task: Try Cc1nc(N)c2c(-c3ccc(NC(=O)[C@H](O)c4cc(F)cc(C(F)(F)F)c4)cc3C)cn(C)c2n1 [Compound 39] next.
Result: 0 (no)

----------
assay: Metabolic clearance in hepatocytes, rat; type: in vitro ADME; conditions: male, Sprague Dawley, cryopreserved rat hepatocytes, read-out: Hepatocyte Clearance (t1/2 min) Rat
Kindly state half-life at 1 µM for each of the entries shown.

Task: What half-life at 1 µM value was documented for this compound, Cc1nc(N)c2c(-c3cc(F)c(NC(=O)[C@H](O)c4cccc(F)c4)cc3C)cn(C)c2n1 ?
Result: 0.217 h

Task: Same read-out for Cc1nc(N)c2c(-c3ccc(NC(=O)[C@H](O)c4cccc(C(F)(F)F)c4)cc3C)cn(C)c2n1 ?
Result: 2.77 h

Task: Query Cc1cc(F)cc([C@@H](O)C(=O)Nc2ccc(-c3cn(C)c4nc(C)nc(N)c34)c(C)c2)c1 next
Result: 0.267 h

Task: Then this compound: Cc1nc(N)c2c(-c3ccc(NC(=O)[C@H](O)c4cc(F)cc(F)c4)cc3C)cn(C)c2n1
Result: 2.02 h

----------
test: Caco-2 permeability / efflux; assay type: in vitro ADME; conditions: human, Caco-2, pH 7.4; 5 μM, 120 minutes
Metric: Papp A→B at 120 min, 5 µM (×10⁻⁶ cm/s)
Record the value in ×10⁻⁶ cm/s, omitting the unit from your answer.

Task: Would you mind telling me what Papp A→B at 120 min, 5 µM value was observed for Cc1nc(N)c2c(-c3ccc(NC(=O)[C@H](O)c4cccc(F)c4)cc3C)cn(C)c2n1 [Compound 24] ?
Result: 9

Task: Next molecule up: Cc1nc(N)c2c(-c3ccc(NC(=O)[C@H](O)c4cc(F)cc(F)c4)cc3C)cn(C)c2n1 [Compound 38]
Result: 19

Task: Entry Cc1nc(N)c2c(-c3ccc(NC(=O)[C@H](O)c4cccc(F)c4)c(F)c3C)cn(C)c2n1 [Compound 65] please
Result: 26

Task: Next entry: Cc1nc(N)c2c(-c3cc(F)c(NC(=O)[C@H](O)c4cccc(F)c4)cc3C)cn(C)c2n1 [Compound 66]
Result: 24

Task: Field entry: Cc1nc(N)c2c(-c3ccc(NC(=O)[C@H](O)c4cccc(C(F)(F)F)c4)cc3C)cn(C)c2n1 [Compound 26]
Result: 21

Task: Try this molecule too: Cc1nc(N)c2c(-c3ccc(NC(=O)[C@H](O)c4cc(F)cc(C(F)(F)F)c4)cc3C)cn(C)c2n1 [Compound 39]
Result: 16

Task: Same for Cc1nc(N)c2c(-c3ccc(NC(=O)[C@H](O)c4cccc(Cl)c4)cc3F)cn(C)c2n1 [Compound 48]
Result: 24

----------
experiment: Metabolic clearance in hepatocytes, dog; format: in vitro ADME; conditions: male, beagle, cryopreserved dog hepatocytes, read-out: Hepatocyte Clearance (t1/2 min) Dog
Metric: half-life at 1 µM (h)
# unit: h | format: bare number

Task: Fill in: half-life at 1 µM of Cc1nc(N)c2c(-c3cc(F)c(NC(=O)[C@H](O)c4cccc(F)c4)cc3C)cn(C)c2n1 is ___
Result: 0.65

Task: Now give it for Cc1nc(N)c2c(-c3ccc(NC(=O)[C@H](O)c4cc(F)cc(F)c4)cc3C)cn(C)c2n1 too.
Result: 7.67

Task: Now try Cc1cc(F)cc([C@@H](O)C(=O)Nc2ccc(-c3cn(C)c4nc(C)nc(N)c34)c(C)c2)c1 .
Result: 3.87

Task: Entry to check: Cc1nc(N)c2c(-c3ccc(NC(=O)[C@H](O)c4cccc(Cl)c4)cc3F)cn(C)c2n1
Result: 3.58

Task: Another: Cc1nc(N)c2c(-c3ccc(NC(=O)[C@H](O)c4cccc(Cl)c4)cc3C)cn(C)c2n1
Result: 5.92

Task: Would you mind doing Cc1nc(N)c2c(-c3ccc(NC(=O)[C@H](O)c4cccc(F)c4)c(F)c3C)cn(C)c2n1 as well?
Result: 9.45

Task: Continue with Cc1nc(N)c2c(-c3ccc(NC(=O)[C@H](O)c4cccc(C(F)(F)F)c4)cc3C)cn(C)c2n1
Result: 2.17

Task: Try this compound too: Cc1nc(N)c2c(-c3ccc(NC(=O)[C@H](O)c4cccc(F)c4)c(F)c3F)cn(C)c2n1
Result: 4.47

Task: Try this compound too: Cc1nc(N)c2c(-c3ccc(NC(=O)[C@H](O)c4cc(F)cc(C(F)(F)F)c4)cc3C)cn(C)c2n1
Result: 3.72

----------
Test: Plasma protein binding (RED dialysis), rat
Format: in vitro ADME
Settings: male, Sprague Dawley, pH 7.4
Description: Verapamil hydrochloride and tamoxifen were obtained from Sigma-Aldrich. […] Pooled mixed gender human donor plasma, Sprague Dawley male rat plasma, CD-1 (ICR) male mouse plasma and male beagle dog plasma were obtained from Bioreclamation Inc. (Westbury, NY). Reusable Teflon base plate, RED Device inserts, and BupH Phosphate Buffered Saline packs (0.1 M sodium phosphate and 0.15 M sodium chloride when dissolved in 0.5 L water) were obtained from Thermo Scientific (Waltham, MA). […]
Metric: fraction unbound at 4 h, 1 µM
Please state the value as a number alone, without comment.

Task: Name the reported fraction unbound at 4 h, 1 µM value associated with the compound Cc1cc(F)cc([C@@H](O)C(=O)Nc2ccc(-c3cn(C)c4nc(C)nc(N)c34)c(C)c2)c1 [Compound 41]
Result: 0.005

Task: Follow-up entry: Cc1nc(N)c2c(-c3ccc(NC(=O)[C@H](O)c4cccc(F)c4)c(F)c3F)cn(C)c2n1 [Compound 70]
Result: 0.007

Task: For Cc1nc(N)c2c(-c3ccc(NC(=O)[C@H](O)c4cccc(Cl)c4)cc3F)cn(C)c2n1 [Compound 48] then?
Result: 0.004

Task: Do the same for Cc1nc(N)c2c(-c3ccc(NC(=O)[C@H](O)c4cccc(F)c4)cc3C)cn(C)c2n1 [Compound 24] please
Result: 0.009
